Data provenance: paper PMC10397247

# tested.target: T1, 4H3627-AA
# T1 chain: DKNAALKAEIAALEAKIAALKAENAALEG
# method.notes: two-hybrid library CCmax;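 further: natural log of median RNA to DNA barcode read ratio; higher means stronger binding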
# experimental.context: mean of both orientations
Consider the following binders; for each one, report its interaction score.
Answers are plain numbers.

The following binders each have a reported value; give each one's interaction score.
1. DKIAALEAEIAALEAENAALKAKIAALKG [4H2078-AA]
2. DKIAALKAKIAALKAKNAALKAKNAALKG [4H2944-AA]
3. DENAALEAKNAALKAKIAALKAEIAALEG [4H1513-AA]
4. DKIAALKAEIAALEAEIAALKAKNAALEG [4H2575-AA]
5. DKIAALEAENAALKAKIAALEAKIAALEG [4H2277-AA]
6. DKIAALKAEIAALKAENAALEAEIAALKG [4H2642-AA]
7. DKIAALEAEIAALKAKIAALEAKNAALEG [4H2151-AA]

1: -0.14; 2: -0.579; 3: -0.0527; 4: 0.318; 5: -1.28; 6: -1.58; 7: -0.182
